The reported numbers originate from PubChem BioAssay (NCI).

Test system: HS 578T breast
Assay: NCI tumour cell line growth inhibition, 48 h
Endpoint Name: GI50

Request: Hi! What's the reported GI50 for Cc1ccc(/C=C(\C#N)n2nnc3cc(F)c(F)cc32)cc1 on HS 578T breast?
Response: 4.17 µM

Request: API: value(readout= GI50, system= HS 578T breast, query= COC(=O)c1c(-c2ccccc2)csc1NC(=O)c1c(-c2ccccc2)noc1C )
Response: > 100 µM

Request: I'm curious: which GI50 was measured for CN(C)/[N+]([O-])=N/Oc1cc(Nc2ccc(C(=O)O)cc2)c([N+](=O)[O-])cc1[N+](=O)[O-] tested on HS 578T breast?
Response: 21.7 µM
